# EXPERIMENTAL_SYSTEM: ABL2 (Arg) (Homo sapiens, UniProt P42684)
# Sequence (P42684 whole entry): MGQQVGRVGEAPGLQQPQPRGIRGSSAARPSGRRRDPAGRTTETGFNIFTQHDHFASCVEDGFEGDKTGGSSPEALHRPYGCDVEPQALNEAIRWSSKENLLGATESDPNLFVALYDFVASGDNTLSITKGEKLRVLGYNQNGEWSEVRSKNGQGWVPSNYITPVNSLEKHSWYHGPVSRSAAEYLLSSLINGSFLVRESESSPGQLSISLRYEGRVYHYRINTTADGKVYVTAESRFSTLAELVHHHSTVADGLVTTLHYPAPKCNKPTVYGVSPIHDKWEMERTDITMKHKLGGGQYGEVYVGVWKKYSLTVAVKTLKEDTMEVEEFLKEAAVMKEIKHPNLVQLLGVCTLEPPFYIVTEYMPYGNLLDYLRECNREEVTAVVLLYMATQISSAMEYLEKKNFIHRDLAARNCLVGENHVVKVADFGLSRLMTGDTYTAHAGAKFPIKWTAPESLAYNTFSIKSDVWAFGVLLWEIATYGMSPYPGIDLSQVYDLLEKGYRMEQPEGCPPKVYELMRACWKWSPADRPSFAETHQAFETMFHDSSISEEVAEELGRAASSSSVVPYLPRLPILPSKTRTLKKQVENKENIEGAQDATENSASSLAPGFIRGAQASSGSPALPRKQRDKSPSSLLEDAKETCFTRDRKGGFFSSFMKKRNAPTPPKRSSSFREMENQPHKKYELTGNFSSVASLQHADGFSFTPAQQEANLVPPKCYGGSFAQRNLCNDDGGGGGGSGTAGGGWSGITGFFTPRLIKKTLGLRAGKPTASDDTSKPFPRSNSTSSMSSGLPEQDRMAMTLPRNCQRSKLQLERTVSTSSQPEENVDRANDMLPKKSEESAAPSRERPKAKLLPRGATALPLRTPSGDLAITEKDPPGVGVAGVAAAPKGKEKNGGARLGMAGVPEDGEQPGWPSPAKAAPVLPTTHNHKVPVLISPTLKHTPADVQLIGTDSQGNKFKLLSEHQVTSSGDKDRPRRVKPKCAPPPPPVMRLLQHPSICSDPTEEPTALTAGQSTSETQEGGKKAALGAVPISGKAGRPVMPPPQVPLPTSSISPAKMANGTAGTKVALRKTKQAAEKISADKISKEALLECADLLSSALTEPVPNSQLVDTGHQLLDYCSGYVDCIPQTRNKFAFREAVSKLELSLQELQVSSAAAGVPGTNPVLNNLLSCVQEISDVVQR
# RUN_DESCRIPTION: Tyrosine kinase inhibition assay
# Assay type: biochemical
# ASSAY_CONTEXT: single concentration 1.0 μM, read-out: percent inhibition
This section presents compounds with their documented inhibition at 1 µM values.
Form field: result (number plus unit)

COMPOUND	RESULT
COc1cc2nccc(Oc3ccc(NC(=O)C4(NC(=O)c5ccc(F)cc5)CC4)cc3F)c2cc1OC [Cbo-02]	12%

Ask: Please give the documented inhibition at 1 µM of COc1cc2nccc(Oc3ccc(NC(=O)C4(C(=O)Nc5ccc(F)cc5)CC4)cc3)c2cc1OC [Cabozantinib, reference compound]
Reply: 35%

Ask: Please give the documented inhibition at 1 µM of COc1cc2nccc(Oc3ccc(NC(=O)C4(NC(=O)c5ccc(F)cc5)CC4)cc3F)c2cc1Oc1c(F)cc(N)cc1F [Cbo-14]
Reply: 18%

Ask: Please give the documented inhibition at 1 µM of COc1cc2nccc(Oc3ccc(NC(=O)C4(NC(=O)c5ccc(F)cc5)CC4)cc3F)c2cc1Oc1ccc(N)cc1F [Cbo-10]
Reply: 17%

Ask: Please give the documented inhibition at 1 µM of COc1cc2nccc(Oc3ccc(NC(=O)C4(C(=O)Nc5ccc(F)cc5)CC4)cc3F)c2cc1Oc1ccc(N)cc1F [Cbo-23]
Reply: 54%
